Taken from patent US20260258115A1.

target.or.test.system: T1, RSV postfusion F (postF), subtype A (respiratory syncytial virus subtype A, UniProt P03420 26-513)
T1 construct: also called Postfusion subtype A; F deltaFP
assay.summary: BLI
endpoint.name: binding result

[[record]]
binder = "ADI-19454 (antibody, V domains shown, full-length IgG) VH: EVQLLESGGGLVKPGGSLRLSCAASGFTFSSYSMNWVRQAPGKGLEWVSSISSSSSYIYYADSVKGRFTISRDNAKNSLYLQMNSLRAEDTAVYYCARGYCSGGSCYSHYFQHWGQGTLVTVSS VL: QSVLTQPASVSGSPGQSITISCTGTSSDVGGYNYVSWYQQHPGKAPKLMIYDVSNRPSGVSNRFSGSKSGNTASLTISGLQAEDEADYYCSSYTSSSTVVFGGGTKVTVL"
endpoint_name = "binding result"
observed_value = "no binding"

[[record]]
binder = "ADI-25573 (antibody, V domains shown, full-length IgG) VH: EVQLVESGAEVKKPGASVKVSCKASGYTFTSYYMHWVRQAPGQGLEWMGIINPSGGSTSYAQKFQGRVTMTRDTSTSTVYMELSSLRSEDTAVYYCARGPYDSSGYCDYWGQGTLVTVSS VL: SYELMQPPSVSVAPGKTARITCGGNNIGSKSVHWYQQKPGQAPVLVVYDDSDRPSGTPERFSGSNSGNTATLTISRVEAGDEADYYCQVWDSSSDQVFGGGTKVTVL"
endpoint_name = "binding result"
observed_value = "no binding"

[[record]]
binder = "ADI-19499 (antibody, V domains shown, full-length IgG; also called Ab 201) VH: EVQLLESGPGLVKPSETLSLTCTVSGGSISSSSYYWGWIRQPPGKGLEWIGSIYYSGSTYYNPSLKSRVTISVDTSKNQFSLKLSSVTAADTAVYYCAVLLYSSSSFDYWGQGTLVTVSS VL: NFMLTQPHSVSESPGKTVTISCTRSSGSIASNYVQWYQQRPGSSPTTVIYEDNQRPSGVPDRFSGSIDSSSNSASLTISGLKTEDEADYYCQSYDSSNQAVFGGGTQLTVL"
endpoint_name = "binding result"
observed_value = "no binding"

